molecular target: recombinant full-length human prolyl endopeptidase (PREP) (Homo sapiens); construct: To recombinant full-length human prolyl endopeptidase (PREP, R&D-Systems, 4308-SE); test: Biochemical human prolyl endopeptidase (PREP) assay with fluorescently labelled substrate; conditions: substrate Z-Gly-Pro-AMC 50 μM, 32° C., 60 min; some as mean values from multiple independent determinations
Sequence (P48147 whole entry): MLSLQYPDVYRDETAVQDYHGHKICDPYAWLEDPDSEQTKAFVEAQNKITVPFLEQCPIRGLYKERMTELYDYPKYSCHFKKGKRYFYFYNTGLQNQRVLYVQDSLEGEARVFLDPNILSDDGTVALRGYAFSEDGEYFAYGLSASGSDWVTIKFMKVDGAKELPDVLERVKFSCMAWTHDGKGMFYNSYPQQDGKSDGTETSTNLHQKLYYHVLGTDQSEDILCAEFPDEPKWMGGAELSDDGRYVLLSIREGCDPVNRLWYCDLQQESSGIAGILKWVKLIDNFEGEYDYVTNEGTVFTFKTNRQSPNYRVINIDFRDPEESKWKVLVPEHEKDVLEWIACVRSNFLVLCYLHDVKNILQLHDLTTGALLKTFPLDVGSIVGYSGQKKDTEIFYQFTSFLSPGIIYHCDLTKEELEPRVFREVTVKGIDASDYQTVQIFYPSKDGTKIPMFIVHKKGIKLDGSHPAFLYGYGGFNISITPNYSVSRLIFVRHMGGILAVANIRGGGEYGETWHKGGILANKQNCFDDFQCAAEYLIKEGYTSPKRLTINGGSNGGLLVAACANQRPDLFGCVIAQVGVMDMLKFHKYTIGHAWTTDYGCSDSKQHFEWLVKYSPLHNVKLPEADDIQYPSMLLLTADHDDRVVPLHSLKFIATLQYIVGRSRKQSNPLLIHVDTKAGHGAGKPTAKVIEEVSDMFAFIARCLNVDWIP
reportedMetric: IC50 (nM)

1: O=C([C@@H]1CCCc2nn(Cc3cccc(C(F)(F)F)c3)c(=O)n21)N1CC[C@H](F)C1
2: O=C(C1CCC(C(F)(F)F)c2nn(Cc3ccc(C(F)(F)F)nc3)c(=O)n21)N1CC[C@H](F)C1 (single isomer, unassigned) [Example 272]
3: Cc1ccc(Cn2nc3n(c2=O)C(C(=O)N2CCCCC2)CCC3)cc1 (racemic)
4: CC(c1ccc(Cl)cc1)n1nc2n(c1=O)C(C(=O)N1CCCC1)CCC2 (racemic) [Example 3]
# rank_down: sort by IC50, max first Your task in answering is to list the labels in the requested order.
3, 4, 2, 1

P: O=C(C1CCCc2nn(Cc3cc(Cl)cc(Cl)c3)c(=O)n21)N1CCCC1 (racemic)
Q: O=C(C1CC(C(F)(F)F)Cc2nn(Cc3ncc(F)cc3Cl)c(=O)n21)N1CCC(F)(F)C1 (racemic) [Example 575]
R: O=C([C@@H]1CCCc2nn(Cc3ccc(F)cc3F)c(=O)n21)N1CC(F)C1
List from greatest to least IC50. Your task in answering is to list the labels in the requested order.
Q, P, R
(Q: 7.4 nM, P: 0.84 nM, R: 0.465 nM)

1: CCn1nc(C(F)(F)F)cc1Cn1nc2n(c1=O)[C@H](C(=O)N1CC[C@H](F)C1)CCC2
2: O=C(C1C(C(F)(F)F)CCc2nn(Cc3ncc(Cl)cc3F)c(=O)n21)N1CCC(F)(F)C1 (racemic) [Example 296]
IC50 comparison. Which is larger, 1 or 2 ? Identify your pick by its label.
2

A: O=C(C1CCCc2nn(Cc3cccc(C(F)(F)F)c3F)c(=O)n21)N1CCCC1 (racemic)
B: O=C(C1C(C(F)(F)F)CCc2nn(Cc3ccc(C(F)(F)F)nc3)c(=O)n21)N1CC[C@H](F)C1 (single isomer, unassigned) [Example 285]
Just tell me: smaller IC50 value, A or B ? Identify your pick by its label.
A

---

Target: recombinant full-length human prolyl endopeptidase (PREP) (Homo sapiens)
Construct: To recombinant full-length human prolyl endopeptidase (PREP, R&D-Systems, 4308-SE)
Test: Biochemical human prolyl endopeptidase (PREP) assay with fluorescently labelled substrate
Conditions: substrate Z-Gly-Pro-AMC 50 μM, 32° C., 60 min; some as mean values from multiple independent determinations
Method: B-1 Biochemical Human Prolyl Endopeptidase (PREP) Assay for Identification of Inhibitors of PREP Activity Using a Fluorescently Labelled Substrate Principle of the Assay: The enzymatic conversion of the fluorescent peptide substrate was observed on the basis of the measurement of the fluorescence intensity. The enzyme activity was determined by the ascertaining of the initial slope in the increase in fluorescence. […]
reportedMetric: IC50 (nM)

Known results for compounds:
INSERT INTO assay_data (compound, reportedmetric, unitinfo, reportedmeasurement) VALUES
  ('O=C([C@@H]1CCCc2nn(Cc3ccc(F)cc3Cl)c(=O)n21)N1C[C@@H](F)[C@@H](F)C1 [Example 474]', 'IC50', 'nM', 0.36),
  ('O=C(C1CCc2nn(Cc3ccc(C(F)(F)F)nc3)c(=O)n21)N1C[C@@H](F)[C@@H](F)C1 (mixture of isomers) [Example 173]', 'IC50', 'nM', 5.85),
  ('O=C(C1C(C(F)(F)F)CCc2nn(Cc3ccc(Cl)cn3)c(=O)n21)N1CC(F)C1 (single isomer, unassigned) [Example 311]', 'IC50', 'nM', 30),
  ('Cc1nc(C(F)(F)F)c(Cn2nc3n(c2=O)C(C(=O)N2CCCC2)CCC3)s1 (racemic) [Example 77]', 'IC50', 'nM', 4.8);

a: O=C(C1C(C(F)(F)F)CCc2nn(Cc3ccc(Cl)cn3)c(=O)n21)N1CC[C@H](F)C1 (mixture of isomers) [Example 298]
b: O=C([C@@H]1CCCc2nn(Cc3ccc(F)cc3F)c(=O)n21)N1CC[C@H](F)C1 [Example 488]
IC50 comparison. Which is larger, a or b ? Identify your pick by its label.
a
(a: 24 nM, b: 0.15 nM)

I: O=C(C1CC(C(F)(F)F)Cc2nn(Cc3ccc(Cl)nc3)c(=O)n21)N1CC[C@H](F)C1 (single isomer, unassigned) [Example 243]
II: O=C([C@@H]1CCCc2nn(Cc3ccc(C(F)(F)F)nc3)c(=O)n21)N1CC2CC1C2 [Example 199]
III: O=C([C@@H]1CCCc2nn(Cc3ccc(C(F)F)nc3)c(=O)n21)N1CC(F)C1 [Example 209]
Hey, can you sort those compounds up there by IC50, smallest first? Your task in answering is to list the labels in the requested order.
I, III, II

1: O=C(C1CCCc2nn(Cc3ccc(Cl)nc3)c(=O)n21)N1CCCC1 (racemic) [Example 31]
2: CC(C)(C)c1ccc(Cn2nc3n(c2=O)C(C(=O)N2CCCC2)CCC3)cc1 (racemic) [Example 2]
3: O=C([C@@H]1CCCc2nn(Cc3ccnc(C(F)(F)F)n3)c(=O)n21)N1CCCC1 [Example 94]
4: O=C([C@@H]1CCCc2nn(Cc3cncc(C(F)(F)F)c3)c(=O)n21)N1CCC(F)(F)C1 [Example 579]
List from greatest to least IC50. Your task in answering is to list the labels in the requested order.
3, 2, 1, 4
